Origin of the recorded values: the supplement of paper PMC10037445

test system: RAW-Dual; experiment: NF-kB SEAP reporter activity, fold change vs agonist alone; cytotoxicity flag (confluency mask): not cytotoxic; higher = enhanced NF-kB activity; conditions: agonist: Pam2CSK4 (TLR2/6) 0.1 ug/mL
In all, about 2,900 compounds were measured (“NF-kB SEAP reporter activity, fold change vs agonist alone”: median about 0.99, highest 2% from about 2.6 on). Only a selection was taken, and the highest values are over-represented in it overall.
Quick rule: NF-kB SEAP reporter activity of at least 0.9 means Criterion met, below that means Criterion not met.

Recorded results for 10 molecules are shown here.
Molecule	Category Label
CCOC(=O)Nc1ccc(NCc2ccc(F)cc2)nc1N.O=C(O)/C=C/C(=O)O (library stock concentration (final ~1000-fold dilution): 10 mM)	Criterion met
COc1cc(C(=O)O)ccc1NC(=O)C1NC(CC(C)(C)C)C(C#N)(c2ccc(Cl)cc2F)C1c1cccc(Cl)c1F (centres undefined) (library stock concentration (final ~1000-fold dilution): 10 mM)	Criterion not met
Cc1cc(C)c2c(c1)C(N(Cc1cc(C(F)(F)F)cc(C(F)(F)F)c1)c1nnn(C)n1)CCCN2CC1CCC(C(=O)O)CC1 (centres undefined) (library stock concentration (final ~1000-fold dilution): 10 mM)	Criterion not met
COC1CC2CCC(C)C(O)(O2)C(=O)C(=O)N2CCCCC2C(=O)OC(C(C)CC2CCC(O)C(OC)C2)CC(=O)C(C)C=C(C)C(O)C(OC)C(=O)C(C)CC(C)C=CC=CC=C1C (centres undefined) (library stock concentration (final ~1000-fold dilution): .1 mM)	Criterion met
COc1ccc(S(=O)(=O)Nc2cc(-c3c(O)ccc4ccccc34)c(O)c3ccccc23)cc1 (library stock concentration (final ~1000-fold dilution): 10 mM)	Criterion met
CC1CCN(C(=O)CC#N)CC1N(C)c1ncnc2[nH]ccc12 (centres undefined) (library stock concentration (final ~1000-fold dilution): 10 mM)	Criterion met
COc1ccc2cccc(CCNC(C)=O)c2c1 (library stock concentration (final ~1000-fold dilution): 10 mM)	Criterion met
COC1CC2CCC(C)C(O)(O2)C(=O)C(=O)N2CCCCC2C(=O)OC(C(C)CC2CCC(OCCO)C(OC)C2)CC(=O)C(C)C=C(C)C(O)C(OC)C(=O)C(C)CC(C)C=CC=CC=C1C (centres undefined) (library stock concentration (final ~1000-fold dilution): 10 mM)	Criterion not met
COC1CC2CCC(C)C(O)(O2)C(=O)C(=O)N2CCCCC2C(=O)OC(C(C)CC2CCC(O)C(OC)C2)CC(=O)C(C)C=C(C)C(O)C(OC)C(=O)C(C)CC(C)C=CC=CC=C1C (centres undefined) (library stock concentration (final ~1000-fold dilution): 10 mM)	Criterion not met
CC1(C)CCC2(C(=O)O)CCC3(C)C(=CCC4C5(C)CCC(=O)C(C)(C)C5CCC43C)C2C1 (centres undefined) (library stock concentration (final ~1000-fold dilution): 10 mM)	Criterion not met

Identify whether the reported NF-kB SEAP reporter activity of the following molecule is 0.9 or greater: COC1CC2CCC(C)C(O)(O2)C(=O)C(=O)N2CCCCC2C(=O)OC(C(C)CC2CCC(OC(=O)C(C)(CO)CO)C(OC)C2)CC(=O)C(C)C=C(C)C(O)C(OC)C(=O)C(C)CC(C)C=CC=CC=C1C (centres undefined) (library stock concentration (final ~1000-fold dilution): 10 mM)
Criterion met

Identify whether the reported NF-kB SEAP reporter activity of the following molecule is 0.9 or greater: CCOC(=O)C(CCc1ccccc1)NC(C)C(=O)N1CCCC1C(=O)O.O=C(O)/C=C\C(=O)O (centres undefined) (library stock concentration (final ~1000-fold dilution): 10 mM)
Criterion met

Identify whether the reported NF-kB SEAP reporter activity of the following molecule is 0.9 or greater: O=c1cc(-c2cccc3c2Sc2ccccc2S3)oc(N2CCOCC2)c1 (library stock concentration (final ~1000-fold dilution): 10 mM)
Criterion not met

Identify whether the reported NF-kB SEAP reporter activity of the following molecule is 0.9 or greater: CC(O)C1C(=O)N2C(C(=O)O)=C(SCCNC=N)CC12.O (centres undefined) (library stock concentration (final ~1000-fold dilution): 10 mM water)
Criterion met

Identify whether the reported NF-kB SEAP reporter activity of the following molecule is 0.9 or greater: CC(C)CC(NP(=O)(O)OC1OC(C)C(O)C(O)C1O)C(=O)NC(Cc1c[nH]c2ccccc12)C(=O)O (centres undefined) (library stock concentration (final ~1000-fold dilution): 10 mM)
Criterion met

Identify whether the reported NF-kB SEAP reporter activity of the following molecule is 0.9 or greater: Nc1nc(F)nc2c1ncn2C1OC(COP(=O)(O)O)C(O)C1O (centres undefined) (library stock concentration (final ~1000-fold dilution): 10 mM)
Criterion met

Identify whether the reported NF-kB SEAP reporter activity of the following molecule is 0.9 or greater: Cc1n[nH]c2ccc(-c3cncc(OCC(N)Cc4ccccc4)c3)cc12 (centres undefined) (library stock concentration (final ~1000-fold dilution): 10 mM)
Criterion not met

Identify whether the reported NF-kB SEAP reporter activity of the following molecule is 0.9 or greater: O=C(Nc1ccc(O)c(C(=O)O)c1)c1cccc(NC(=O)c2ccco2)c1 (library stock concentration (final ~1000-fold dilution): 10 mM)
Criterion met

---

Reported NF-kB SEAP reporter activity values follow for various molecules
tested on: RAW-Dual; assay: NF-kB SEAP reporter activity, fold change vs agonist alone; cytotoxicity flag (confluency mask): not cytotoxic; higher = enhanced NF-kB activity; details: agonist: Pam3CSK4 (TLR2/1) 0.1 ug/mL
Whole data set: some 2,900 compounds, median “NF-kB SEAP reporter activity, fold change vs agonist alone” near 0.99, cut for the highest 2% near 2.6. The full list was thinned out, with the highest values kept by preference.
The reply should be a number, written without any unit.

// known answers, use as guide
Molecule	NF-kB SEAP reporter activity
Cc1ccc(/C=N/NC(=O)c2ccccc2Oc2ccccc2)o1 (library stock concentration (final ~1000-fold dilution): 10 mM)	1.31
CC(C)=CC(C)C[C@](C)(O[C@@H]1O[C@H](CO)[C@@H](O)[C@H](O)[C@H]1O)[C@H]1CC[C@]2(C)C3CCC4C(C)(C)C(O[C@@H]5O[C@H](CO)[C@@H](O)[C@H](O)[C@H]5O[C@@H]5O[C@H](CO)[C@@H](O)[C@H](O)[C@H]5O)CC[C@]4(C)C3C[C@H](O)[C@@H]12 (stereo not given in full) (library stock concentration (final ~1000-fold dilution): 10 mM)	1.04
O=C(O)CCCN1CCC(OC(c2ccc(Cl)cc2)c2ccccn2)CC1.O=S(=O)(O)c1ccccc1 (stereo not given) (library stock concentration (final ~1000-fold dilution): 10 mM)	1.17
NC(=O)c1ccccn1 (library stock concentration (final ~1000-fold dilution): 10 mM)	0.836
CC(C)(O)CNc1nc(Nc2ccnc(C(F)(F)F)c2)nc(-c2cccc(C(F)(F)F)n2)n1 (library stock concentration (final ~1000-fold dilution): 10 mM)	1.59
O.O=c1c(O)c(-c2ccc(O)cc2O)oc2cc(O)cc(O)c12 (library stock concentration (final ~1000-fold dilution): 10 mM)	1.18
Cc1c(CN2CCN(C(=O)C(C)O)CC2)sc2c(N3CCOCC3)nc(-c3cnc(N)nc3)nc12 (stereo not given) (library stock concentration (final ~1000-fold dilution): 10 mM)	0.661
Clc1ccc(N/N=C(\c2ccccc2)c2ccccn2)nc1 (library stock concentration (final ~1000-fold dilution): 10 mM)	1.76

Could you share which NF-kB SEAP reporter activity value was measured for COc1cc(N2CCN(C)CC2)ccc1Nc1nccc(-c2cn(C)c3cnccc23)n1 (library stock concentration (final ~1000-fold dilution): 10 mM) ?
1.44

Could you share which NF-kB SEAP reporter activity value was measured for CC(C)NCC(C(=O)N1CCN(c2ncnc3c2C(C)CC3O)CC1)c1ccc(Cl)cc1 (stereo not given) (library stock concentration (final ~1000-fold dilution): 10 mM) ?
1.11

---

tested on: RAW-Dual; assay: NF-kB SEAP reporter activity, fold change vs agonist alone; cytotoxicity flag (confluency mask): not cytotoxic; higher = enhanced NF-kB activity; details: agonist: LPS (TLR4) 0.1 ug/mL
In all, about 2,900 compounds were measured (“NF-kB SEAP reporter activity, fold change vs agonist alone”: median about 0.99, highest 2% from about 2.6 on). The sample as a whole holds a higher share of the highest values than the screen did.
Measure: NF-kB SEAP reporter activity
The reply should be a number, written without any unit.

Molecule	NF-kB SEAP reporter activity
Cn1cc(Nc2nccc(N3CC4CCC(C3)N4C(=O)C3CC3(F)F)n2)cn1 (configuration not stated) (library stock concentration (final ~1000-fold dilution): 10 mM)	0.973

Could you share which NF-kB SEAP reporter activity value was measured for COC1CC2CCC(C)C(O)(O2)C(=O)C(=O)N2CCCCC2C(=O)OC(C(C)CC2CCC(OCCO)C(OC)C2)CC(=O)C(C)C=C(C)C(O)C(OC)C(=O)C(C)CC(C)C=CC=CC=C1C (configuration not stated) (library stock concentration (final ~1000-fold dilution): 10 mM) ?
1.83
